# Measured on: T1, Recombinant human CD4 (R&D Systems, Cat. 10327-CD) (human, UniProt P01730 26-390, limits assumed)
# T1 construct: Soluble analyte in the Octet assay
# Test: BLI Octet, mAb on anti-mouse Fc sensor, CD4 100/50/25 nM, 1:1 global fit;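 also: antibodies loaded at 10 µg/mL, an unrelated mouse-derived antibody served as internal reference control, association and dissociation phases fitted after Savitzky-Golay smoothing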
This listing pairs binders with measured Response.
Measured quantity: Response

[[record]]
binder = "75110_03D16A (antibody, V domains shown, Tested as antibody purified from AlivaMab Mouse hybridoma supernatant (captured by anti-mouse IgG Fc)) VH: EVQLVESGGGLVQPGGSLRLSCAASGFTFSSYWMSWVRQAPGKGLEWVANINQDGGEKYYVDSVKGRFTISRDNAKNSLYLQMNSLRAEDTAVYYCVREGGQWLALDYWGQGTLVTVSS VL: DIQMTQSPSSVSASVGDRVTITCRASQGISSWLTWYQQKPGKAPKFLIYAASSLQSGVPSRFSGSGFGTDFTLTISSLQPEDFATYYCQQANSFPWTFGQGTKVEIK"
measured_quantity = "Response"
assay_result = 0.05

[[record]]
binder = "75110_03I08A (antibody, V domains shown, Tested as antibody purified from AlivaMab Mouse hybridoma supernatant (captured by anti-mouse IgG Fc)) VH: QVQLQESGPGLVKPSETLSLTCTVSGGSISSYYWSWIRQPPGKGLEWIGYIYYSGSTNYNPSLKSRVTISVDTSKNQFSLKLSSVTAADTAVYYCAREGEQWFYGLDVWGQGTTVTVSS VL: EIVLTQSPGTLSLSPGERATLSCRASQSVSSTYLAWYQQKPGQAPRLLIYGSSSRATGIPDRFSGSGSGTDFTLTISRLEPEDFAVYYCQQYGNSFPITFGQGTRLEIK"
measured_quantity = "Response"
assay_result = 0.14


The measured values listed here are drawn from patent US20220112288A1.
